System: cancer cells
EXPERIMENT_DESCRIPTION: MTT cytotoxic assay of esterification products (Cytotoxicity activity)
Type: cell-based, human
REPORTED_CONDITIONS: esterification products of E4A—Tig—N with senecioyl chloride
PROPERTY_LABEL: Cytotoxicity activity

CC=C(C)C(=O)OCC1(C)C(O)CCC2(C)C1CCC1(C)C2CC=C2C3CC(C)(C)C(O)C(OC(=O)C=C(C)C)C3(COC(=O)C=C(C)C)C(O)CC21C (stereo not shown)    moderate
CC=C(C)C(=O)OCC1(C)C(O)CCC2(C)C1CCC1(C)C2CC=C2C3CC(C)(C)C(OC(=O)C=C(C)C)C(O)C3(COC(=O)C=C(C)C)C(O)CC21C (stereo not shown)    moderate
CC=C(C)C(=O)OCC1(C)C(O)CCC2(C)C1CCC1(C)C2CC=C2C3CC(C)(C)C(O)C(O)C3(CO)C(O)CC21C (stereo not shown)    moderate

Source listed as patent US20230340012A1.
